# assay target: UniProt P0DTD1
# test protocol: SARS-CoV-2 Mpro enzymatic inhibition assay (fluorescence)
# Assay type: biochemical
Param label: returns class 1 when IC50 < 30 nM, returns class 0 otherwise, including exact equality.

Check out these entries, answers already filled in.
O=C[C@H](C[C@@H]1CCNC1=O)NC(=O)[C@@H]1[C@H]2C[C@H]2CN1C(=O)c1cc2ccccc2[nH]1	class 0
CC1(C)[C@@H]2[C@@H](C(=O)N[C@H](C#N)C[C@@H]3CCNC3=O)N(C(=O)C3(c4ccccc4)CC3)C[C@@H]21	class 0
CC1(C)[C@@H]2[C@@H](C(=O)N[C@H](C=O)C[C@@H]3CCCNC3=O)N(C(=O)CC3CCCCC3)C[C@@H]21	class 0
O=C[C@H](C[C@@H]1CCNC1=O)NC(=O)[C@@H]1[C@H]2C[C@H](F)[C@H](C2)N1C(=O)c1cc2ccccc2[nH]1	class 0
NC(=O)C(=O)[C@H](C[C@@H]1CCNC1=O)NC(=O)[C@@H]1CC2(CC2)CN1C(=O)c1cc2ccccc2[nH]1	class 1

## Input API: query returns whether the compound falls strictly under 30 nM in IC50. Query: `Cn1c(C(=O)N2C[C@H]3[C@@H]([C@H]2C(=O)N[C@H](C=O)C[C@@H]2CCNC2=O)C3(C)C)cc2cc(Cl)ccc21`
## Output class 0

## Input In the record for `CC1(C)[C@@H]2[C@@H](C(=O)N[C@H](C=O)C[C@@H]3CCNC3=O)N(C(=O)c3cc4ccc(Cl)c(F)c4[nH]3)C[C@@H]21` , is IC50 less than 30 nM?
## Output class 1

## Input Lab note: IC50 threshold 30 nM. Does this compound come in strictly under it? `O=C[C@H](C[C@@H]1CCNC1=O)NC(=O)[C@@H]1C[C@@H]2CCCC[C@@H]2N1C(=O)c1cc2ccccc2[nH]1`
## Output class 0

## Input Is IC50 strictly under 30 nM for the entry `O=C[C@H](C[C@@H]1CCNC1=O)NC(=O)[C@@H]1C[C@H](Oc2ccccc2)CN1C(=O)c1cc2ccccc2[nH]1` ?
## Output class 0

## Input is_below(IC50, 30 nM) for `CC1(C)[C@@H]2[C@@H](C(=O)N[C@H](C=O)C[C@@H]3CCNC3=O)N(C(=O)c3cc4cc5c(cc4[nH]3)OCO5)C[C@@H]21` ?
## Output class 1

## Input Below 30 nM on IC50? Entry `Cc1cccc2cc(C(=O)N3C[C@H]4[C@@H]([C@H]3C(=O)N[C@H](C=O)C[C@@H]3CCNC3=O)C4(C)C)[nH]c12`
## Output class 1

## Input Threshold test, IC50 < 30 nM: `O=C[C@H](C[C@@H]1CCNC1=O)NC(=O)[C@@H]1C[C@@H](Cc2cccc(Cl)c2)CN1C(=O)c1cc2ccccc2[nH]1`
## Output class 0

Values were extracted from patent US20260355212A1.
